Parameter IC50: see the listing below.
Target: arginase II (ARG II) (Homo sapiens, UniProt P78540)
Sequence (P78540 23-354): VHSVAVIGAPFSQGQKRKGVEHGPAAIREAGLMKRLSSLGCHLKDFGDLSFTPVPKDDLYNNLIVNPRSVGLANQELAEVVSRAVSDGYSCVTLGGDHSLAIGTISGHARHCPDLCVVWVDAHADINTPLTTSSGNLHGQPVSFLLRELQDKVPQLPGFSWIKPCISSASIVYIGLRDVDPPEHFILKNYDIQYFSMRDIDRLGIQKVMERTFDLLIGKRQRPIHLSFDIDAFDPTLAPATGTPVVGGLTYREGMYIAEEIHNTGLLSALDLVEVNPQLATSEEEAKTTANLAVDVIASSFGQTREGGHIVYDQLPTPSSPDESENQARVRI
Assay: Inhibition of arginase II, spectrophotometric urea assay at 530 nm
Assay type: biochemical
Conditions: Formula II compounds, Table 2-A; read-out: Potency (ARG)
Where a name gives a salt, the structure may show the parent alone.

molecule	assayed-target	measured-result
NC(CCCCB(O)O)(C(=O)O)[C@H]1C[C@H](NCc2ccccc2)C1 (stereo partly drawn) [Example 75-A, dihydrochloride]	arginase II (ARG II) (Homo sapiens, UniProt P78540)	251 to 1000 nM

INPUT: Look at this molecule and give its reported IC50. CC(=O)N1CCC(C(N)(CCCCB(O)O)C(=O)O)CC1 (stereo not drawn) [27-A, hydrochloride]
OUTPUT: 2000 to 5000 nM

INPUT: Look at this molecule and give its reported IC50. NC(CCCCB(O)O)(C(=O)O)C1CCN(Cc2cccc(OC(F)(F)F)c2)CC1 (stereo not drawn) [Example 103-A, dihydrochloride]
OUTPUT: 0.1 to 250 nM

INPUT: Look at this molecule and give its reported IC50. NC(CCCCB(O)O)(C(=O)O)C1CCN(Cc2ccc(F)c(F)c2)CC1 (stereo not drawn)
OUTPUT: 251 to 1000 nM

INPUT: Look at this molecule and give its reported IC50. NC(CCCCB(O)O)(C(=O)O)C1CCN(CCc2ccc(Cl)cc2Cl)CC1 (stereo not drawn)
OUTPUT: 251 to 1000 nM

INPUT: Look at this molecule and give its reported IC50. NC(CCCCB(O)O)(C(=O)O)C1CCN(Cc2cccc3cccnc23)CC1 (stereo not drawn) [Example 56-A, dihydrochloride]
OUTPUT: 251 to 1000 nM

INPUT: Look at this molecule and give its reported IC50. NC(CCCCB(O)O)(C(=O)O)C1CCN(C(=S)NCc2ccc(Cl)cc2)CC1 (stereo not drawn)
OUTPUT: 1000 to 2000 nM

INPUT: Look at this molecule and give its reported IC50. NC(CCCCB(O)O)(C(=O)O)C1CCN(C(=O)Nc2ccc(Cl)c(Cl)c2)CC1 (stereo not drawn)
OUTPUT: 1000 to 2000 nM

INPUT: Look at this molecule and give its reported IC50. NC(CCCCB(O)O)(C(=O)O)[C@H]1CC[C@@H](C(=O)c2ccc(Cl)cc2)CC1 (stereo partly drawn) [Example 84-A, hydrochloride]
OUTPUT: > 5000 nM
